- systemTested: CYP11 B2 (Homo sapiens, UniProt P19099)
- Sequence (P19099 25-503): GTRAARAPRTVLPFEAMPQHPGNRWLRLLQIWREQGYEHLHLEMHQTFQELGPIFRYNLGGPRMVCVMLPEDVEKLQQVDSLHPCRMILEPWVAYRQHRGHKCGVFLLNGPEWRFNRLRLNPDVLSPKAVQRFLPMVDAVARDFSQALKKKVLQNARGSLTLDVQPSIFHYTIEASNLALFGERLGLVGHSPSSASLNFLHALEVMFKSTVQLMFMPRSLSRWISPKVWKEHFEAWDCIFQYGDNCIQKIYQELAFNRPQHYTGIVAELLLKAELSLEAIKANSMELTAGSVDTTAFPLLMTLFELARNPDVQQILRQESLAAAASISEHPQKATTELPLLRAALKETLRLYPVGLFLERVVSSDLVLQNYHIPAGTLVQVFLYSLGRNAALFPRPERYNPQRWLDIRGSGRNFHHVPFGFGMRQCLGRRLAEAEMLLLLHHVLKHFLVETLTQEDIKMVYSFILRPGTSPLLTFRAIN
- experimentalProtocol: Inhibition of CYP11 B2 in Y1-CYP11 B2 cells (aldosterone radioimmunoassay)
- Format: cell-based
- Parameters: expressed in transfected cells; host or cells: murine Y1 adrenal adenocarcinoma cells (Y1-CYP11 B2 cells)
- cond: Y1-Cells stably transfected with human CYP11 B2 gene; 1µM DOC substrate; 48 hours
pIC50: −log10 of the molar value.
assayMetric: pIC50

COc1cncc(-c2ccc(C(F)(F)F)c(F)c2)n1 | 7.44
CC(O)c1cncc(-c2ccc(C#N)c(F)c2)c1 (stereo not drawn) | 7.59
Fc1cc(-c2cncc(Br)c2)ccc1C(F)(F)F | 7.51
